Each record here notes measured pKd.
biological target: Tremfya Fab with a lambda light chain and binding specificity for IL23 (from the monoclonal antibody guselkumab); assay: BLI (ForteBio), biotinylated ligand on sensor, 1:1 fit
Note on pKd: it is the negative log10 of concentration, concentration in mol/L.

Use these answered entries as a reference point.
BINDER | pKd
affinity ligand SEQ ID NO: 80 (designed binder, biotinylated (AviTag system)) MGGGGSAAAGDEADRWAALGAAYAARGDYDRAIEYYQRALELDPNNAWAWWDLGVAYAARGDYDRAIEYYERALELDPDDAHAWFRLGWAYAARGDYDRAIEYYERALELDPEDETARDVLEGARRARQGQAGQGGGSGLNDIFEAQKIEWHECHHHHHH | 8.40
affinity ligand SEQ ID NO: 79 (designed binder, biotinylated (AviTag system)) MGGGGSAAAGDEADRWADLGAAYAARGDYDRAIEYYQRALELDPNNAWAWWDLGVAYAARGDYDRAIEYYQRALELDPNNAVAWRRLGHAYAARGDYDRAIEYYQRALELDPNNELAREQLERARRARHGQAGQGGGSGLNDIFEAQKIEWHECHHHHHH | 7.55

We now examine a further binder.
Would you kindly share the measured pKd for affinity ligand SEQ ID NO: 90 (designed binder, biotinylated (AviTag system)) MGGGGSAAAGDEAQCWENQGAAYAARGDYDRAIEYYERALELDPNNAWAWWELGVAYAARGDYDRAIEYYERALELDPDDATTWSRLGHAYAARGDYDRAIEYYVRALELDPEDETARYLLEHARRARQGQAGQGGGSGLNDIFEAQKIEWHECHHHHHH ?
7.92
